Reported protein stability index values for a set of variants
B1: TMEM106C (parent)
chain: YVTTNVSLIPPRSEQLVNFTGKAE

variants of: B1; assay: protein stability index of a GFP-peptide fusion (GPS, HEK-293T) (PSI 1-6); higher = more stable; conditions: c terminus: a fixed tail appended;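 also: lentivirally expressed fusions sorted by FACS into six bins by GFP to DsRed ratio, PSI derived from sequencing read proportions per bin multiplied by bin number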
measured_attribute: protein stability index

• V17F = 2.88
• Y1V = 2.19
• P11D = 2.11
• V6R = 1.92
• S7R = 2.13
• P10W = 2.56
• L8C = 1.66
• P10S = 1.82
• G21L = 1.58
• Q15W = 1.86
• G21H = 2.1
• S7Q = 2.27
• N18F = 2.28
• G21Q = 2.3
• S13H = 2.34
• A23E = 1.65
• N5H = 1.66
• S13E = 1.88
• L16Y = 1.73
• T3D = 1.9
• G21T = 1.86
• L16F = 1.88
• E24W = 2.93
• L16I = 2.23
• Q15Y = 2.69
• E24N = 2.92
• K22N = 2.04
• E14V = 2
• N5L = 2.32
• E24R = 1.48
• T20Y = 2.86
• N5S = 1.63
• T3E = 2.99
• V2Y = 3.22
• E14P = 2.18
• V17A = 1.84
• N5C = 2.28
• L16V = 1.34
• Q15S = 1.96
• V17S = 1.55
• T20D = 1.95
• V17T = 1.91
• E24K = 1.88
• F19E = 2.7
• F19Q = 2.54
• A23F = 2.06
